# Tested on: Wolbachia pipientis
# EXPERIMENTAL_PROTOCOL: Anti-Wolbachia Cell-Based Screen
# Format: functional
# Parameters: scale not given: in the data most compounds retested in dose-response had high values
# MEASUREMENT_CONDITIONS: 5 µM
Screen size: about 48,000 compounds; about 13,000 (27%) showed an effect of 50% or more. Some of the results follow.
Reported Percent Effect is given for each of the following compounds.
Number in %, nothing else.

Record excerpt, results attached:
CN1CC(=O)N(c2ccccc2)CC12CCN(Cc1cccnc1)C2.O=C(O)C(F)(F)F.O=C(O)C(F)(F)F.O=C(O)C(F)(F)F (stereo unspecified)    -4.544
CCN(CCO)C(=O)Nc1ccc(OCCOC)nc1    0.2723
CNCC(=O)N1CCC(c2cccc(Oc3ccccc3)n2)CC1    178.2
NCC(=O)N1CCC(c2cccc(Oc3ccccc3)n2)CC1    130.3

Prompt line: Note Percent Effect for the compound shown: COc1ccnc(N2CCN(Cc3ncc(-c4ccccc4)o3)CC2)n1
Response line: -5.442

Prompt line: Note Percent Effect for the compound shown: CCn1cnnc1C1CCN(C(=O)COc2ccccc2)CC1
Response line: 2.9

Prompt line: Note Percent Effect for the compound shown: Cc1cc(Br)ccc1C(=O)N(C)CCNS(C)(=O)=O
Response line: -13.91

* * *

# System: Wolbachia pipientis
# EXPERIMENTAL_PROTOCOL: Anti-Wolbachia Cell-Based Screen
# Type: functional
# Set-up: scale not given: in the data most compounds retested in dose-response had high values
# MEASUREMENT_CONDITIONS: 5 µM
Screen size: about 48,000 compounds; about 13,000 (27%) showed an effect of 50% or more. The list shows a part of the results.
Reported Percent Effect is given for each of the following molecules.
Number in %, nothing else.

CC(=O)N1CCC(NC[C@H]2Cn3c(-c4ccccc4)cnc3CO2)CC1    -3.853
COc1ccc(C(=O)N2Cc3cc(C)ccc3OCC2CN(C)C)cc1.Cl (centres undefined)    72.78
O=S1(=O)c2ccccc2C(O)CN1CCO (centres undefined)    120.8

Next up:
Prompt line: Send back Wolbachia pipientis Percent Effect of COCC(C)(C)NS(=O)(=O)C1CS(=O)(=O)c2ccccc21 (centres undefined) only.
Response line: 12.05

* * *

# System: Wolbachia pipientis
# EXPERIMENTAL_PROTOCOL: Anti-Wolbachia Cell-Based Screen
# Assay type: functional
# Parameters: scale not given: in the data most compounds retested in dose-response had high values
# MEASUREMENT_CONDITIONS: 5 µM
Hit rate of the full screen: of about 48,000 compounds, about 13,000 (27%) showed an effect of 50% or more. The list shows a part of the results.
METRIC: Percent Effect (%)
Number in %, nothing else.

Cc1noc(C)c1CC(=O)N1CCCC(Cn2ccnc2C)C1 (stereo unspecified)    108.2
Cc1noc(C)c1CNC(=O)N1CCN(CC2CC2)CC1    -3.03
Cc1cnn(C2CCCN(C(=O)Cc3ccc(C)s3)C2)c1 (stereo unspecified)    107.6
CCCc1noc(CCC(=O)N2CCCC(n3ccnc3C)C2)n1 (stereo unspecified)    4.516
Cc1nccn1CC1CCCN(C(=O)Cc2ccsc2)C1 (stereo unspecified)    91.27

Next up:
Prompt line: Note Percent Effect for the compound shown: Cc1[nH]c2c(C)ccc(C)c2c1CC(=O)NCCNc1cccnc1
Response line: 0.5336

* * *

# Test system: Wolbachia pipientis
# EXPERIMENTAL_PROTOCOL: Anti-Wolbachia Cell-Based Screen
# Assay type: functional
# Design: scale not given: in the data most compounds retested in dose-response had high values
# MEASUREMENT_CONDITIONS: 5 µM
The campaign covered roughly 48,000 compounds. About 13,000 (27%) showed an effect of 50% or more. The list shows a part of the results.
Reported Percent Effect is given for each of the following compounds.
Number in %, nothing else.

Prompt line: Note Percent Effect for the compound shown: CC(C)(C)CN1CCC(c2nccnc2Nc2cnccn2)CC1
Response line: 104.1

Prompt line: Note Percent Effect for the compound shown: CC(=O)c1cccc(OCCCC(=O)N(C)CC(N)=O)c1
Response line: -6.7

* * *

# System: Wolbachia pipientis
# EXPERIMENTAL_PROTOCOL: Anti-Wolbachia Cell-Based Screen
# Format: functional
# Parameters: scale not given: in the data most compounds retested in dose-response had high values
# MEASUREMENT_CONDITIONS: 5 µM
The campaign covered roughly 48,000 compounds. About 13,000 (27%) showed an effect of 50% or more. The list shows a part of the results.
METRIC: Percent Effect (%)
Number in %, nothing else.

Record excerpt, results attached:
CCc1cc(N(C)Cc2c(C)nn(C)c2C)n2nccc2n1    -6.903
Cc1cc(C(=O)NC(C)CC(=O)c2cccs2)n(C)n1 (configuration not stated)    104.4
OC1(CNc2ccc(Br)cn2)CCOCC1    9.923
CCNC(=O)N1CCC(NC(=O)NCCc2cc3ccccc3o2)C1 (configuration not stated)    -2.435
CS(=O)(=O)N1CCCC12CCCN(c1nccs1)C2 (configuration not stated)    4.667

Prompt line: Note Percent Effect for the compound shown: COCCC1(C(=O)O)CCN(c2cc(C)c3ccccc3n2)CC1
Response line: -3.456

Prompt line: Note Percent Effect for the compound shown: Cc1ccnc(OC[C@]23COC[C@H]2CN(C(=O)c2cnccn2)C3)n1
Response line: 95.8

Prompt line: Note Percent Effect for the compound shown: COc1c(C(=O)NC(C)CC(=O)c2cccs2)c(C)nn1C (configuration not stated)
Response line: 88.78

Prompt line: Note Percent Effect for the compound shown: CNC(=O)c1cccc(CNC(C)c2ccc(F)cc2N(C)C)c1 (configuration not stated)
Response line: 2.761

Prompt line: Note Percent Effect for the compound shown: CC(=O)N1CCC(C(=O)Nc2nnc(C(F)(F)F)[nH]2)CC1
Response line: -2.768

Prompt line: Note Percent Effect for the compound shown: Cc1nn(C)c(C)c1C(=O)NC(C)CC(=O)c1cccs1 (configuration not stated)
Response line: 89.66

Prompt line: Note Percent Effect for the compound shown: CCc1ccc(S(=O)(=O)N2CCCC3(CCCN3S(C)(=O)=O)C2)cc1 (configuration not stated)
Response line: 114.6

Prompt line: Note Percent Effect for the compound shown: Cc1ccccc1C(NC(=O)CNC(=O)c1ccoc1C)C(C)C (configuration not stated)
Response line: -4.038

Prompt line: Note Percent Effect for the compound shown: CSCCNC(=O)C1CCC(=O)N(C2CCCC2)C1 (configuration not stated)
Response line: -26.76

Prompt line: Note Percent Effect for the compound shown: c1ccc(Cn2cc(CNC3CCc4ncnn4C3)cn2)cc1 (configuration not stated)
Response line: 1.382

Prompt line: Note Percent Effect for the compound shown: CC(C)c1ccc(S(=O)(=O)N2CCCC3(CCCN3S(C)(=O)=O)C2)cc1 (configuration not stated)
Response line: 108.3

Prompt line: Note Percent Effect for the compound shown: O=C(O)C(F)(F)F.O=C([C@H]1CCCO1)N1CC[C@H](O)[C@@H]1Cc1ccncc1
Response line: -12.15

* * *

# Tested on: Wolbachia pipientis
# EXPERIMENTAL_PROTOCOL: Anti-Wolbachia Cell-Based Screen
# Type: functional
# Design: scale not given: in the data most compounds retested in dose-response had high values
# MEASUREMENT_CONDITIONS: 5 µM
The campaign covered roughly 48,000 compounds. About 13,000 (27%) showed an effect of 50% or more. Some of the results follow.
Reported Percent Effect is given for each of the following molecules.
Number in %, nothing else.

CN1CCCC(c2nccnc2-c2cccc(Cl)c2)C1 (stereo unspecified)    117.7
Cc1cccc(-c2nccnc2C2CCCN(C)C2)c1C (stereo unspecified)    89.85
O=C(O)C(F)(F)F.O=C1CCC2(CCCN(C(=O)Cc3cccnc3)C2)N1 (stereo unspecified)    -30.04
COc1ccc(C)cc1-n1cnnc1C1CCCN(C)C1 (stereo unspecified)    8.034
CC(C)CCN1CC2(CCCN(C(=O)NCc3cccs3)C2)CCC1=O (stereo unspecified)    1.307

Next up:
Prompt line: Note Percent Effect for the molecule shown: O=C(c1cccc(Cl)c1)C1CCCN(c2nnc(C3CCC3)o2)C1 (stereo unspecified)
Response line: -5.901

* * *

# System: Wolbachia pipientis
# EXPERIMENTAL_PROTOCOL: Anti-Wolbachia Cell-Based Screen
# Assay type: functional
# Set-up: scale not given: in the data most compounds retested in dose-response had high values
# MEASUREMENT_CONDITIONS: 5 µM
Among all 48,000 compounds or so, about 13,000 (27%) showed an effect of 50% or more. Some of the results follow.
METRIC: Percent Effect
Respond with a number, then the unit of measure.

Record excerpt, results attached:
Cn1cc(N2CCN(c3ccc(C#N)c(Cl)c3)CC2=O)cn1    -30.5%
COc1ccc(CC(C)Nc2cccc(SC)c2)cc1 (stereo not given)    111.5%
CC(NC(=O)c1ccoc1)C(=O)N(C)Cc1ccsc1 (stereo not given)    8.82%
COC[C@H](C)Nc1cc(C)c2ccc(SC)cc2n1    11.13%
Cc1cc(Nc2ccc(F)cn2)cc(C2CCN(Cc3ncc[nH]3)C2)n1 (stereo not given)    87.11%
COc1ccc(CCC(C)Nc2cccc(SC)c2)cc1 (stereo not given)    100.8%

Prompt line: Note Percent Effect for the compound shown: CC(CNS(N)(=O)=O)Oc1cccc(Cl)c1 (stereo not given)
Response line: -1.116%

Prompt line: Note Percent Effect for the compound shown: Cc1cccc(Nc2ccc(C3CCN(Cc4ncc[nH]4)CC3)nc2)n1
Response line: 108.6%

Prompt line: Note Percent Effect for the compound shown: CN(Cc1ccccc1)c1ncccc1CNC1CCCC1
Response line: -55.14%
